Test system: NCI-H23
protocol.text: NCI tumour cell line growth inhibition, 48 h
Active and inactive are the calls of the source. Rule as the data show it: active = GI50 up to about 1.1 µM and inactive = higher.
metric: GI50

## Task Would you kindly share the measured GI50 for CC(=O)c1c2c(cc3c1CC1(C3)Cc3ccc4c(c3C1=O)CCC4)CCC2 (configuration not stated) ?
## Result 34.9 µM (inactive)

## Task Would you kindly share the measured GI50 for CC(=O)OCC1OC(n2c(=S)n(-c3ccc([N+](=O)[O-])cc3)c(=O)c3ccccc32)C(OC(C)=O)C(OC(C)=O)C1OC(C)=O (configuration not stated) ?
## Result 21.3 µM (inactive)

## Task Would you kindly share the measured GI50 for COc1ccc2oc(OC)c(CC=C(C)C)c(=O)c2c1C ?
## Result > 100 µM (inactive)

## Task Would you kindly share the measured GI50 for COCCn1cnc2c(Cl)nc(Nc3ccccc3)nc21 ?
## Result 33.3 µM (inactive)

Please give GI50 for each item listed below.
1. CC(/C=C/c1ccccc1)=N\NC(N)=S
2. Cc1cccc(/C=C2/C(=O)Nc3ccccc32)n1
3. NC(=O)c1cccc(OCC(O)CO)c1 (configuration not stated)
4. COCOC1CCCC[C@@]1(OCCOCCO[C@@]1(c2ccccc2)CCCC[C@H]1OCOC)c1ccccc1 (some centres not stated)

## Result
1. 74 µM (inactive)
2. 10.4 µM (inactive)
3. > 100 µM (inactive)
4. > 100 µM (inactive)

Where these numbers come from: ChEMBL document CHEMBL1201862
